experimental-target: hERG potassium channel (Homo sapiens, UniProt Q12809)
Construct: expressed in transfected cells; host or cells: CHO cells stably expressing hERG
Sequence (Q12809 whole entry): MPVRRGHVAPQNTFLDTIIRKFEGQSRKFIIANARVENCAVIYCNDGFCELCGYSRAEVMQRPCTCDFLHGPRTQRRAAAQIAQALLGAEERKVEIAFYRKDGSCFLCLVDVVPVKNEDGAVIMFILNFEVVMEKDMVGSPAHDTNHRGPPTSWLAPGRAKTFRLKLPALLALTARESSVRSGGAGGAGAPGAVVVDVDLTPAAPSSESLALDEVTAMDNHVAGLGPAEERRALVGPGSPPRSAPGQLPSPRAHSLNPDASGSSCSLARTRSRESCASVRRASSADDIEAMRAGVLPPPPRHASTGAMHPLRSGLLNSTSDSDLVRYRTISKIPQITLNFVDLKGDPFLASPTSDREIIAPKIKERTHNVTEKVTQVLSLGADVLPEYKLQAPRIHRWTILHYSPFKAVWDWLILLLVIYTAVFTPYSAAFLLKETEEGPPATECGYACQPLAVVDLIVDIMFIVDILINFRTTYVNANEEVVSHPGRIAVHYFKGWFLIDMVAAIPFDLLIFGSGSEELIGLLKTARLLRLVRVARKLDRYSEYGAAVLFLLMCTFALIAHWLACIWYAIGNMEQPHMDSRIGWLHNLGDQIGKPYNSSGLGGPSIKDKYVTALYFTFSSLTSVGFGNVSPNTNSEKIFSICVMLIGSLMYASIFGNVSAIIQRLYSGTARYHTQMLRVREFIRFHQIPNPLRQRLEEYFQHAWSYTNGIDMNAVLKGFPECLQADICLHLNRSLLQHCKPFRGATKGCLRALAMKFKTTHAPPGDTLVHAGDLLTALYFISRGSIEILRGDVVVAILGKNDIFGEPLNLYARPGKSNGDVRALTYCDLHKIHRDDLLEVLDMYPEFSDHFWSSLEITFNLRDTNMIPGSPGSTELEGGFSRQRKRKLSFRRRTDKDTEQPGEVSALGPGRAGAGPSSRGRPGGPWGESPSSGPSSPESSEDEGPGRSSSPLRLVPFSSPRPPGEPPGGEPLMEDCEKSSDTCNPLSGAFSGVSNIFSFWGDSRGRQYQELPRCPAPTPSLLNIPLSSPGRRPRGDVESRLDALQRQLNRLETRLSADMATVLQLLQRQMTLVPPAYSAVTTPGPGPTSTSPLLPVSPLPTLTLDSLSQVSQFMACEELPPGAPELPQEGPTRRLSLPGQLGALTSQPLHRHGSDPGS
experiment: hERG potassium ion channel test (manual patch-clamp, CHO cells)
Format: cell-based
setup-conditions: human, CHO cells stably expressing hERG potassium channel; inhibitory activity against hERG potassium channel current, CHO cells, whole cell patch-clamp; read-out: IC50
attribute-measured: IC50

stdin: Query (molecule): COc1cc(O[C@H]2C(C)(C)[C@H](NC(=O)c3ccc(N4CCC5(CC4)CC(N4CCN6c7cc(F)c(N8CCC(=O)NC8=O)cc7CC[C@@H]6C4)C5)cc3)C2(C)C)ccc1C#N ; field requested: IC50
stdout: > 40 µM
